Biological target: Beta-1,3-glucan synthase (Candida albicans, UniProt O13383)
Sequence (O13383 whole entry): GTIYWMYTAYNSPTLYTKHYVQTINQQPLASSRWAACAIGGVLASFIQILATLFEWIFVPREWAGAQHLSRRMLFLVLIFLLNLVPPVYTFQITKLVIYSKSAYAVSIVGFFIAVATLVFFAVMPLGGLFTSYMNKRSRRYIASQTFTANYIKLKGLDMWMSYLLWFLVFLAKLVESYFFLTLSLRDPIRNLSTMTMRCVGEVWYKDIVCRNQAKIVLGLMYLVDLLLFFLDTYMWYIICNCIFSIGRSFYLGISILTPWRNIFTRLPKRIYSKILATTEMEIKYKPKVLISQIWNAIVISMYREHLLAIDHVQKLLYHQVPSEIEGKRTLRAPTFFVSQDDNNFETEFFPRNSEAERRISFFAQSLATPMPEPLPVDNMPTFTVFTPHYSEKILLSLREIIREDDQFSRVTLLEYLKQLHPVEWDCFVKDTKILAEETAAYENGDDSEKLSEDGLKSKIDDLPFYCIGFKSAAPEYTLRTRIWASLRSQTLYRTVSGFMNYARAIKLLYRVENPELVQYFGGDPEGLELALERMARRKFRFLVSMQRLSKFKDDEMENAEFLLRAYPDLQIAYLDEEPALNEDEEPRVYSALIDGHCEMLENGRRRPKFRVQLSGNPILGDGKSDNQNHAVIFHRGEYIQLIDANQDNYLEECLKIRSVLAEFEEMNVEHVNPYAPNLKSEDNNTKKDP
Kindly find below IC50 information for Beta-1,3-glucan synthase (Candida albicans, UniProt O13383) taken from the literature.
PROPERTY MEASURED: IC50 (nM)

COMPOUND	IC50, nM
CC(C)S(=O)(=O)N1CCN(c2cnn(-c3cc(F)cc(F)c3)c(=O)c2OC2CCC(F)(F)C2)CC1 (stereo not given)	1160

a. CCCCCCCCOc1ccc(NC(=O)C(CCCNC(=O)OC(C)(C)C)NC(=O)/C=C/c2ccc(O)c(O)c2)cc1 (stereo not given)
b. O=c1c(OC2CCCC2)c(N2CCN(S(=O)(=O)Cc3ccccc3)CC2)cnn1-c1ccccc1
c. CC(C)[C@@H](C)[C@@]1(C)CC[C@]2(C)[C@H]3CC[C@H]4C5(C)COC[C@@]4(C[C@@H](n4cccn4)[C@@H]5O[C@@H]4O[C@H](CO)[C@@H](O)[C@H](O)[C@H]4O)C3=CC[C@@]2(C)[C@@H]1C(=O)O
d. CC(=O)O[C@@H]1C[C@@]23COCC(C)([C@H]1OC[C@](C)(N)C(C)C)[C@@H]2CC[C@H]1C3=CC[C@@]2(C)[C@H](C(=O)O)[C@@](C)([C@H](C)C(C)C)CC[C@]12C
Incoming: Put these in order: smallest IC50 first, largest last. Put the labels in the order asked and list them.
Outgoing: d, b, c, a
(d: 9.52 nM, b: 364 nM, c: 813 nM, a: 52000 nM)

---

Kindly find below pIC50 information for Beta-1,3-glucan synthase (Candida albicans) taken from the literature.
pIC50: −log10 of the molar value.
PROPERTY MEASURED: pIC50

The cases that follow already have their pIC50 on record.
COMPOUND	PROPERTY MEASURED	REPORTED VALUE
CC(C)S(=O)(=O)N1CCN(c2cnn(-c3ccccc3)c(=O)c2OC2CCCC2)CC1	pIC50	5.42
CS(=O)(=O)N1CCN(c2cnn(-c3ccccc3)c(=O)c2OC2CCCC2)CC1	pIC50	5.28
O=c1c(N2CCOCC2)c(N2CCN(S(=O)(=O)Cc3ccccc3)CC2)cnn1-c1ccccc1	pIC50	5.03
CC(C)S(=O)(=O)N1CCN(c2cnn(-c3cccc(Cl)c3)c(=O)c2OC2CCCC2)CC1	pIC50	5.97
CC(C)S(=O)(=O)N1CCN(c2cnn(-c3cc(Cl)cc(Cl)c3)c(=O)c2OC2CCCC2)CC1	pIC50	6.30

I. CCOCCCNc1c(N2CCN(S(=O)(=O)Cc3ccccc3)CC2)cnn(-c2ccccc2)c1=O
II. CC(=O)O[C@@H]1C[C@@]23COCC(C)([C@H]1OCC(C)(C)N)[C@@H]2CC[C@H]1C3=CC[C@@]2(C)[C@H](C(=O)O)[C@@](C)([C@H](C)C(C)C)CC[C@]12C
Incoming: API: POST /compare with I and II ; response names the item with higher pIC50. Mark your selection by writing its label.
Outgoing: II
(II: 7.13, I: 5.35)

P. CCCCCCCCOc1ccc(NC(=O)C(CCCN)NC(=O)/C=C/c2ccc(O)c(O)c2)cc1 (centres undefined)
Q. CC(=O)O[C@@H]1C[C@@]23COCC(C)([C@H]1OC[C@@](C)(N)C(C)C)[C@@H]2CC[C@H]1C3=CC[C@@]2(C)[C@H](C(=O)O)[C@@](C)([C@H](C)C(C)C)CC[C@]12C
Incoming: API: POST /compare with P and Q ; response names the item with higher pIC50. Mark your selection by writing its label.
Outgoing: Q

---

Kindly find below IC50 information for Beta-1,3-glucan synthase (Candida albicans) taken from the literature.

The cases that follow already have their IC50 on record.
MOLECULE	IC50
O=c1c(OC2CCCC2)c(N2CCN(S(=O)(=O)c3ccccc3)CC2)cnn1-c1ccccc1	> 20.8 µM
CCCCCCCCOc1ccc(NC(=O)C(CC(=O)O)NC(=O)[C@]2(O)C[C@@H](O)[C@@H](O)[C@H](OC(=O)/C=C/c3ccc(O)c(O)c3)C2)cc1 (stereo not given in full)	> 48 µM
CCCCCCCCOc1ccc(NC(=O)[C@]2(O)C[C@@H](O)[C@@H](O)[C@H](O)C2)cc1	> 81 µM

Incoming: Reported IC50, molecule `CC(C)[C@@H](C)[C@@]1(C)CC[C@]2(C)[C@H]3CC[C@H]4C5(C)COC[C@@]4(C[C@@H](n4ncc6ccccc64)[C@@H]5O[C@@H]4O[C@H](CO)[C@@H](O)[C@H](O)[C@H]4O)C3=CC[C@@]2(C)[C@@H]1C(=O)O` : ____
Outgoing: > 1.33 µM

Incoming: Reported IC50, molecule `CC(=O)O[C@@H]1C[C@@]23COCC(C)([C@H]1O[C@@H]1O[C@H](CO)[C@@H](O)[C@H](O)[C@H]1O)[C@@H]2CC[C@H]1C3=CC[C@@]2(C)[C@H](C(=O)O)[C@@](C)([C@H](C)C(C)C)CC[C@]12C` : ____
Outgoing: 0.0866 µM
